# System: S. epidermidis (ATCC)
# method_summary: Electroanalytically determined MIC, gram-positive bacteria
# Assay type: cell-based, Staphylococcus epiderdimis ATCC 14990
# run_conditions: Staphylococcus epidermidis, 24 h
# Excerpt: Identical lots of media and antimicrobial agents were used in the susceptibility tests performed. The media used were trypticase soy agar (TSA) and TSB from Baltimore Biological Laboratories (BBL), Cockeysville, Maryland. […]
Where a name gives a salt, the structure may show the parent alone.
result_type: MIC (µg/mL)
Value expressed in µg/mL; do not type the unit.

Take a look at these entries with their results.
compound	result_type	reading_unit	value_measured
CN[C@H](CC(C)C)C(=O)N[C@H]1C(=O)N[C@@H](CC(N)=O)C(=O)N[C@H]2C(=O)N[C@H]3C(=O)N[C@H](C(=O)N[C@H](C(=O)O)c4cc(O)cc(O)c4-c4cc3ccc4O)[C@H](O)c3ccc(c(Cl)c3)Oc3cc2cc(c3O[C@@H]2O[C@H](CO)[C@@H](O)[C@H](O)[C@H]2O[C@H]2C[C@](C)(N)[C@H](O)[C@H](C)O2)Oc2ccc(cc2Cl)[C@H]1O [Vanco, vancomycin hydrochloride]	MIC	µg/mL	1.5
[H]/N=C(/N)N[C@H]1[C@H](O)[C@@H](O)[C@H](O[C@@H]2O[C@@H](C)[C@](O)(C=O)[C@H]2O[C@@H]2O[C@@H](CO)[C@H](O)[C@@H](O)[C@@H]2NC)[C@@H](N/C(N)=N\[H])[C@@H]1O [Strep, streptomycin sulfate]	MIC	µg/mL	4
CC(=O)OCC1=C(C(=O)O)N2C(=O)[C@@H](NC(=O)Cc3cccs3)[C@H]2SC1 [Ceph, cephalothin]	MIC	µg/mL	0.1

Request: Quick check: MIC of NC[C@H]1O[C@H](O[C@H]2[C@H](O)[C@@H](O[C@H]3O[C@H](CO)[C@@H](O)[C@H](N)[C@H]3O)[C@H](N)C[C@@H]2N)[C@H](O)[C@@H](O)[C@@H]1O [Kana, kanamycin] ?
Response: 0.4

====

# Test system: E. coli (clinical)
# method_summary: Electroanalytically determined MIC, gram-negative bacteria
# Format: cell-based, Escherichia coli
# run_conditions: Escherichia coli, 24 h
# Excerpt: Identical lots of media and antimicrobial agents were used in the susceptibility tests performed. The media used were trypticase soy agar (TSA) and TSB from Baltimore Biological Laboratories (BBL), Cockeysville, Maryland. […]
Where a name gives a salt, the structure may show the parent alone.
result_type: MIC (µg/mL)
Write the answer as a number in µg/mL, unit excluded.

compound	value_measured
CN(C)[C@@H]1C(=O)C(C(N)=O)=C(O)[C@@]2(O)C(=O)C3=C(O)c4c(O)cccc4[C@@](C)(O)[C@H]3C[C@@H]12	4

Request: If you can, please state the reported MIC value of `CC(=O)OCC1=C(C(=O)O)N2C(=O)[C@@H](NC(=O)Cc3cccs3)[C@H]2SC1` .
Response: 9

Request: Reported MIC for `NC[C@H]1O[C@H](O[C@H]2[C@H](O)[C@@H](O[C@H]3O[C@H](CO)[C@@H](O)[C@H](N)[C@H]3O)[C@H](N)C[C@@H]2N)[C@H](O)[C@@H](O)[C@@H]1O` : what is it?
Response: 4

Request: State the recorded MIC for this entry: [H]/N=C(/N)N[C@H]1[C@H](O)[C@@H](O)[C@H](O[C@@H]2O[C@@H](C)[C@](O)(C=O)[C@H]2O[C@@H]2O[C@@H](CO)[C@H](O)[C@@H](O)[C@@H]2NC)[C@@H](N/C(N)=N\[H])[C@@H]1O [Strep, streptomycin sulfate]
Response: 9
